Target: T1, cynomolgus TROP2-his protein (cynomolgus monkey, UniProt P09758 27-272 (human entry), limits assumed)
T1 construct: no cleavage site is stated; also called Cynomolgus monkey TROP2-his protein; monkey TROP2
T1 chain: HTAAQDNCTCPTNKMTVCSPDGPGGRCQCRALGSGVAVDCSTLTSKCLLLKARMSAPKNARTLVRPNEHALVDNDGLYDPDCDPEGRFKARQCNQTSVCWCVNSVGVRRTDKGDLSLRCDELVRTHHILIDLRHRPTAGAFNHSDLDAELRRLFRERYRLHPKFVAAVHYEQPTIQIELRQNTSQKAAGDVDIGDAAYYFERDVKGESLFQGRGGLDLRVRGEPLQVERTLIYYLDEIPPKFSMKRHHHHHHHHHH
Test: indirect ELISA, cynomolgus TROP2-his coated at 2 ug/mL, OD(450-630)
QUANTITY_NAME: pEC50
When answering, recall that pEC50 equals minus log10 of the concentration in mol/L, and write that number alone.

Illustrative cases are given below, each with its answer.
mouse antibody A1E11A12D1 (antibody, V domains shown, Mouse monoclonal IgG purified from hybridoma supernatant) VH: QVQLQQSGAELARPGASVKLSCMASGYTFTTYGISWVRQRTGQGLEWIGQIYPGSDYSYCDEDFKGKATLTADKSSSTAYMQLSSLTSEDSAVYFCARASYFDYWGQGTTLTVSS VL: DILLTQSPAILSVSPGERVSFSCRASQTIGTAIHWYQQRANGSPRLLIKYASESISGIPSRFSGSGSGTDFALSINTVESEDFAYYYCQQSNNWPFTFGGGTKLEIR    9.12
mouse antibody A1E4F7D4 (antibody, V domains shown, Mouse monoclonal IgG purified from hybridoma supernatant; also called Mouse A1E4F7D4) VH: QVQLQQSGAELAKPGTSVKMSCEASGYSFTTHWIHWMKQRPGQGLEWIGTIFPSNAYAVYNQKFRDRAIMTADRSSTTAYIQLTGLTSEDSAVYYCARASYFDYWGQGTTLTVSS VL: DILLTQSPATLSVSPGERVTFSCRASQNIGTSIHWFQQRTTGSPRLLIKYASESISGIPSRFSGSGSGTDFTLHINSVESEDIAHYYCQHSHSWPFTFGSGTKLEIQ    9.24
mouse antibody A1B12D2B4E7B3 (antibody, V domains shown, Mouse monoclonal IgG purified from hybridoma supernatant) VH: EVQLQQSGPELVKPGASVKMSCKASGFTFTDYYMNWVKQSHGKSLEWIGYIYPNHGGTGYNQKFKDKATLTVDKSSSTAYMELRSLTSDDSAVYYCARENYGYAMDYWGQGTSVTVSS VL: DVVMTQTPLSLPVSLGDQASISCRSSQSLVHGDGNTYLHWFLQKPGQSPKLLIYTVSNRFSGVPDRFSGSGSGTDFTLKINRVEAEDLGIYFCSQTTHVPTFGGGTKLEIK    9.24

Kindly consider the entry below.
# input What value of measured pEC50 is listed for mouse antibody A1H3C5H8E12 (antibody, V domains shown, Mouse monoclonal IgG purified from hybridoma supernatant) VH: QVQLQQSGAELVRPGTSVKMSCKAAGYTFTNYWIDWVKQRPGHGLEWIGNIFPGGFYTNYNEKFKGKATLTADTSSSTAYMQLSSLTSEDSAIYYCARGGVFDYWGQGTTLTVSS VL: DILLTQSPAILSVSPGERVSFSCRASQSIGTSIHWYQQRTNGSPRLLIKYASESISGIPSRFSGSGSGTDFTLSINSVESEDIADYYCQQSNSWPYTFGGGTKLEIK ?
# output 9.23
